# maps each entry to its IC50
- TEST_SYSTEM: UniProtKB Q72874
- ASSAY_SUMMARY: In vitro inhibition of HIV-1 protease (NL4-3 strain).

[Q] Quick one: IC50 for `O=C(N[C@H]1c2ccccc2OC[C@H]1O)[C@H](Cc1cccnc1)C[C@H](O)CN1CCN(Cc2ccn(-c3ccccc3Cl)c2)C[C@H]1C(=O)NCC(F)(F)F` ?
[A] 180 pM

====

# maps each entry to its IC50
- TEST_SYSTEM: Human immunodeficiency virus type 1 protease (Human immunodeficiency virus 1)
- ASSAY_SUMMARY: In vitro inhibition of HIV-1 protease (NL4-3 strain).
Use nM as the unit, but write only the number.

[Q] Quick one: IC50 for `Cc1ccc(-n2ccc(CN3CCN(C[C@@H](O)C[C@@H](Cc4cccnc4)C(=O)N[C@H]4c5ccccc5OC[C@H]4O)[C@H](C(=O)NCC(F)(F)F)C3)c2)cc1` ?
[A] 0.06

[Q] Quick one: IC50 for `O=C(N[C@H]1c2ccccc2OC[C@H]1O)[C@H](Cc1cccnc1)C[C@H](O)CN1CCN(Cc2ccn(-c3ccccc3)c2)C[C@H]1C(=O)NCC(F)(F)F` ?
[A] 0.11

[Q] Quick one: IC50 for `O=C(N[C@H]1c2ccccc2OC[C@H]1O)[C@H](Cc1cccnc1)C[C@H](O)CN1CCN(Cc2ccn(-c3ccccc3F)c2)C[C@H]1C(=O)NCC(F)(F)F` ?
[A] 0.16

Data origin: ChEMBL document CHEMBL1146635
